Ki data for 5-hydroxytryptamine receptor 2A (Rattus norvegicus) follow.
Number only, in nM; omit the unit.

Examples from the recorded data:
[[record]]
item_smiles = "COc1cc([C@@H](O)[C@@H](C)N)c(OC)cc1Br"
endpoint_result = 0.5

[[record]]
item_smiles = "COc1cc([C@@H](O)[C@H](C)N)c(OC)cc1Br"
endpoint_result = 1.1

[[record]]
item_smiles = "COc1cc([C@H](OC)[C@H](C)N)c(OC)cc1Br"
endpoint_result = 6


Asked: Please give the measured Ki for this compound: COc1cc([C@H](O)[C@@H](C)N)c(OC)cc1Br
Given back: 9.2

Asked: Please give the measured Ki for this compound: COc1cc([C@H](O)[C@H](C)N)c(OC)cc1Br
Given back: 10
